Biological target: human PILRA G78 on cells (human, UniProt Q9UKJ1 20-303)
Sequence (Q9UKJ1 20-303 R78G limits assumed): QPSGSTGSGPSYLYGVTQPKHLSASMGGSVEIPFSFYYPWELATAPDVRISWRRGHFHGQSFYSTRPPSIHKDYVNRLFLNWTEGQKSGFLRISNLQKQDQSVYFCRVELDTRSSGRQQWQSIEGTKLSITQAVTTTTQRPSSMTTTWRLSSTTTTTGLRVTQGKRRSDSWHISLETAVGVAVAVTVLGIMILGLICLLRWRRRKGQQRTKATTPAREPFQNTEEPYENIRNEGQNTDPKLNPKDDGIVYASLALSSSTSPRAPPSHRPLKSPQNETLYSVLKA
Assay: cell-based or functional assay
MEASURED PARAMETER: pSTAT3 S727 induction, EC50 (nM)
Quick note: give the figure in nM, leave out the unit.

Sample records with pSTAT3 S727 induction, EC50 (nM):
{"BINDER": "Anti-PILRA antibody clone 23 (antibody, V domains shown, Humanized; also called Ab.23) VH: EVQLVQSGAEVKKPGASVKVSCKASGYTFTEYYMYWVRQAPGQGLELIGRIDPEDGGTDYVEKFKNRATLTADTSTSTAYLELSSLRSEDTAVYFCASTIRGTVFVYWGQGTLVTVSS VL: DIQMTQSPSSLSASVGDRVTITCRPSEDIYNGLAWYQQKPGKAPKLLIYNANSLHTGVPSRFSGSGSGTDYTLTISSLQPEDFATYYCQQYYDYPLTFGQGTKVEIK", "pSTAT3 S727 induction, EC50 (nM)": 20.1}
{"BINDER": "Anti-PILRA antibody clone 7 (antibody, V domains shown) VH: EVQLQQSGPELQRPGASVKLSCKASGYTFTEYYMYWVKQRPKQGLELMGRIDPEDGGTDYVEKFKNKATLTADTSSNTAYMQLSSLTSEDTATYFCASTIRGTVFVYWGQGTLVTVSS VL: DIQMTQSPASLSASLGETVTIECRPSEDIYNGLAWYQQKPGESPQLLIYNANSLHTGVPSRFSGSGSGTQYSLKINSLQSEDVASYFCQQYYDYPLTFGSGTKLEIK", "pSTAT3 S727 induction, EC50 (nM)": 18.6}

Problem: Give the reported pSTAT3 S727 induction, EC50 (nM) for this binder. Anti-PILRA antibody clone 12 (antibody, V domains shown, Humanized; also called Ab.12) VH: EVQLVQSGAEVKKPGASVKVSCKASGYTFTEYYMYWVRQAPGQGLELIGRIDPEDGGTDYIEKFKNRVTITADTSTSTAYLELSSLRSEDTAVYYCATTIRGTVFAFWGQGTLVTVSS VL: DIQMTQSPSSLSASVGDRVTITCRASEDIFNGLAWYQQKPGKSPKLLIYNAKTLHTGVPSRFSGSGSGSDYTLTISSLQPEDFATYFCQQYYDYPLTFGQGTKVEIK
Solution: 16

All values here come from patent US20260109763A1.
